# Test target: Neuropeptide FF receptor 2 (Homo sapiens)
# Sequence (Q9Y5X5 whole entry): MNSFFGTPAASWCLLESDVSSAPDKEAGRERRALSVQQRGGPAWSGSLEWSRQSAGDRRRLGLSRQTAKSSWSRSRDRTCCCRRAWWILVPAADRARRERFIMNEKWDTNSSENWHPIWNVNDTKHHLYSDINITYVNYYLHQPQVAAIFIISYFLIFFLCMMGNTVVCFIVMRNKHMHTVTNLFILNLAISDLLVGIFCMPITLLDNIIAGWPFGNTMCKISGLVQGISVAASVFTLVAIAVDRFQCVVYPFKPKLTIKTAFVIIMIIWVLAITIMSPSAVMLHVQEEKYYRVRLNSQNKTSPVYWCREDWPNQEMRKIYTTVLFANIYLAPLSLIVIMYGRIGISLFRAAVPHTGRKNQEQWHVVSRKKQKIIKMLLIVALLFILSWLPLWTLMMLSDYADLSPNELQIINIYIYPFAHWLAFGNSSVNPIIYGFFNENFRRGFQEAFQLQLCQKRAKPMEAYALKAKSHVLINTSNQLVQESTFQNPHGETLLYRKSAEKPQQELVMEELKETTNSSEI
# Assay details: Displacement of [3H]FFRF-NH2 from human flag-tagged NPFF2 receptor expressed in CHO cells at 5 uM by scintillation counting
# Assay type: cell-based
Measurement label: inhibition (%)

>>> readout_value("N=C(N)NCCC[C@H](NC(=O)c1cc2ccccc2[nH]1)C(=O)N[C@@H](Cc1ccccc1)C(N)=O")
80

[A] COc1ccc(CC(=O)N[C@@H](CCCNC(=N)N)C(=O)N[C@@H](Cc2ccccc2)C(N)=O)cc1
[B] N=C(N)NCCC[C@H](NC(=O)c1cccc(-c2ccccc2)c1)C(=O)N[C@@H](Cc1ccccc1)C(N)=O
Decide: A or B , by lowest recorded inhibition. Give the label under which the chosen entry appears. A
(A: 21%, B: 56%)

[A] N=C(N)NCCC[C@H](NC(=O)c1ccc2nc[nH]c2c1)C(=O)N[C@@H](Cc1ccccc1)C(N)=O
[B] N=C(N)NCCC[C@H](NC(=O)/C=C/c1ccccc1O)C(=O)N[C@@H](Cc1ccccc1)C(N)=O
Please tell me which of the two, A or B , has the higher reported inhibition value. Record your answer as the label of the chosen record. B
(B: 77%, A: 27%)

[A] N=C(N)NCCC[C@H](NC(=O)c1cccc2ccccc12)C(=O)N[C@@H](Cc1ccccc1)C(N)=O
[B] N=C(N)NCCC[C@H](NC(=O)c1ccco1)C(=O)N[C@@H](Cc1ccccc1)C(N)=O
Look at A and B . Which one has the lower recorded inhibition number? Pick one; state its label. B
